Biological target: T1, Recombinant biotinylated human P-Selectin protein (human, UniProt P16109 42-771, limits assumed, biotinylated (site not stated))
T1 sequence (looked up): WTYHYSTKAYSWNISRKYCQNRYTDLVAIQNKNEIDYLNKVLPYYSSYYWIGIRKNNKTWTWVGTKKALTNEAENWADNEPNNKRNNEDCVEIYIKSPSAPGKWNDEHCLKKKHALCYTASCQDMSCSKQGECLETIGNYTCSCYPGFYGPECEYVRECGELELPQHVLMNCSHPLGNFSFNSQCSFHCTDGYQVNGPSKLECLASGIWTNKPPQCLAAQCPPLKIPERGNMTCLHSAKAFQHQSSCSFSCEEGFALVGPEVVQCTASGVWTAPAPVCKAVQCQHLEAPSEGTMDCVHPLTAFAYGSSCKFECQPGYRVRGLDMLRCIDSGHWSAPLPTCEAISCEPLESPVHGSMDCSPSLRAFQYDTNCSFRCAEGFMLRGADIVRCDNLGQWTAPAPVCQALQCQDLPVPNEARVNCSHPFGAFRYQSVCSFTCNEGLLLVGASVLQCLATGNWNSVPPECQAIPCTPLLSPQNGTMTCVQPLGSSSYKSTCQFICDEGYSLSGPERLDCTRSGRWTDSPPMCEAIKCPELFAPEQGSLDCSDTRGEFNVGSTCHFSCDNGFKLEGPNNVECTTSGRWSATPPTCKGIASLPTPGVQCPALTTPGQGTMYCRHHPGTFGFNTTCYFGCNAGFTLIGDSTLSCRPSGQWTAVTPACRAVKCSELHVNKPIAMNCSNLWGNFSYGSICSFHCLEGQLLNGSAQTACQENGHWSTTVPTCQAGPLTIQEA
Assay: inhibition of 5 nM P-selectin binding to HL-60 cells (PSGL1), mirrorball cytometer, geomean of n=3
Starred links: 1 amine or outer side, 2 acyl side, 3 side chain; linkers in the order of their positions; H or OH if unused. Positions of bridges follow the written chain, without caps; N, C: chain ends. Non-standard residues stand in square brackets, D forms with d. Primed or numbered codes have the meaning given here. No end group written: not given here. TCAZ″ = 1,1',1''-(1,4,7-triazonane-1,4,7-triyl)tris(2-chloroethan-1-one) scaffold, O=C(C[*:1])N1CCN(C(=O)C[*:2])CCN(C(=O)C[*:3])CC1; TCAZ = 1,1',1''-(1,4,7-triazonane-1,4,7-triyl)tris(2-chloroethan-1-one); TATA = O=C(CC[*:1])N1CN(C(=O)CC[*:2])CN(C(=O)CC[*:3])C1; 1Nal = N[C@@H](Cc1cccc2ccccc12)C(=O)O
Property Measured: Inhibition at top concentration (%)
// note: answer is a bare numeric in %

- Ac-CYMEWCDVTDYGC-NH2 (linker 1-6-13 via TATA, Monomeric bicyclic peptide; also called BCY09717) [BCY9717]: 20
- ACDADWCDVPSLPCA-NH2 (linker 2-7-14 via TCAZ″, Monomeric bicyclic peptide) [BCY11648]: 37

Next up:
stdin: Read the entry ACDAD[1Nal]CDVPSLPCA-NH2 (linker 2-7-14 via TCAZ, Monomeric bicyclic peptide) [BCY12027] and write its reported Inhibition at top concentration (%).
stdout: 36
